The measured values listed here are drawn from the supplement of paper PMC10567573.

B1: TRIM9 (parent)
chain: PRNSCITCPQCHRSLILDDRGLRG

variants of: B1; assay: protein stability index of a GFP-peptide fusion (GPS, HEK-293T) (PSI 1-6); higher = more stable; details: c terminus: a fixed tail appended;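 also: lentivirally expressed fusions sorted by FACS into six bins by GFP to DsRed ratio, PSI derived from sequencing read proportions per bin multiplied by bin number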
Values of protein stability index greater than or equal to 2 map to T; values below map to F.

Exercise: Is protein stability index at least 2? Consider PRNSCITCPQCHRSLILDDRGLAG [R23A]
Solution: T

Exercise: Now consider PRNSCITCPQCHRSLIRDDRGLRG [L17R] .
Solution: T

Exercise: Now consider PRNSCITCPQCHRSLFLDDRGLRG [I16F] .
Solution: F

Exercise: Now consider PRNSCITCPQKHRSLILDDRGLRG [C11K] .
Solution: T
